Ref: patent US20220106391A1

- systemName: T1, feline NGF (feline)
- T1 chain: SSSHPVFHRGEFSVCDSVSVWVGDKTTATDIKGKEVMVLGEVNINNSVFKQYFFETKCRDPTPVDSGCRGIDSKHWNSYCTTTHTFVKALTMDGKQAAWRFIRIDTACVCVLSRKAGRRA
- method: SPR, Biacore 3000, feline NGF
- Experimental: Affinities of selected felinized anti-NGF antibody to feline NGF were measured using SPR (Surface Plasmon Resonance), Biacore 3000. Kinetics of association and dissociation of a felinized mAb with/from feline NGF were measured at different concentrations.
valueKind: pKd
API: returns pKd as number; meaning -log10 of concentration in mol/L.

[Q] Can you look up the measured pKd of H733KPL (antibody, V domains shown, also called ZTS-082-2E) VH: DVQLVESGGDLVKPGGSLRLTCVASGFTLTQYGINWVRQAPGKGLQWVAVIWATGATDYNSALKSRFTMSRDNARNTLYLQMNSLKTEDTATYYCARDGWWYATSWYFDVWGQGTLVTVSS VL: DIVMTQTPLSLSVTPGEPASISCKASQDINHYLNWYLQKPDGTVKLLIYYTSRLHSGVPSRFSGSGSGTDFTLRISRVEADDVGVYYCQQGDHFPRTFGPGT for me?
[A] 12.34

[Q] Can you look up the measured pKd of H733 L3-K36 (antibody, V domains shown, also called ZTS-082-361) VH: DVQLVESGGDLVKPGGSLRLTCVASGFTLTQYGINWVRQAPGKGLQWVAVIWATGATDYNSALKSRFTMSRDNARNTLYLQMNSLKTEDTATYYCARDGWWYATSWYFDVWGQGTLVTVSS VL: DIVMTQTPLSLPVTPGEPASISCKASQDINHYLNWYLQKPGQSPRLLIYYTSRLHSGVPSRFSGSGSGTDFTLRISSVEADDVGVYYCQQGDHFPRTFGQGT for me?
[A] 12.48

[Q] Can you look up the measured pKd of mAb 1B (ZTS-082) (antibody, IgG1a, V domains shown, Felinized IgG with feline heavy and kappa constant regions; also called ZTS-082-1B; H1-23 / KPL) VH: DVQLVESGGDLVQPGGSLRLTCVASGFTLTQYGINWVRQAPGKGLQWVAVIWATGATDYNSALKSRFTISRDNAKNTLYLQMNSLKTEDTATYYCARDGWWYATSWYFDVWGQGALVTVSS VL: DIVMTQTPLSLSVTPGEPASISCKASQDINHYLNWYLQKPDGTVKLLIYYTSRLHSGVPSRFSGSGSGTDFTLRISRVEADDVGVYYCQQGDHFPRTFGPGT for me?
[A] 11.03

[Q] Can you look up the measured pKd of H1-23K643 (antibody, V domains shown, also called ZTS-082-2D) VH: DVQLVESGGDLVQPGGSLRLTCVASGFTLTQYGINWVRQAPGKGLQWVAVIWATGATDYNSALKSRFTISRDNAKNTLYLQMNSLKTEDTATYYCARDGWWYATSWYFDVWGQGALVTVSS VL: EIQMTQSPSSLSASPGDRVTITCKASQDINHYLNWYQQKPGKVPKLLIYYTSRLHSGVPSRFSGSGSGTDFTLTISSLEPEDAATYYCQQGDHFPRTFGGGT for me?
[A] 9.75
